Provenance of the data: ChEMBL document CHEMBL2346559

Documented t1/2 across a set of compounds
System: Liver
ASSAY TEXT: Half life in mouse liver microsomes by LC/MS/MS analysis
Assay type: ADME, Microsome
Just the number please, in min, no unit attached.

Observe how each entry below is paired with its result.
C[C@H](Oc1cccc(Cl)c1Cl)C(=O)Nc1ccc2nc(-c3ccncc3)oc2c1
9
C[C@@H](C(=O)Nc1ccc2oc(-c3ccncc3)nc2c1)c1ccccc1
130
C[C@H](Nc1cccc2ccccc12)C(=O)Nc1ccc2oc(-c3ccncc3)nc2c1
27
C[C@H](Nc1cccc(Cl)c1Cl)C(=O)Nc1ccc2oc(-c3ccncc3)nc2c1
110
C[C@@H](C(=O)Nc1ccc2oc(-c3ccncc3)nc2c1)c1cccc(Cl)c1Cl
130
C[C@H](Oc1cccc(Cl)c1Cl)C(=O)Nc1ccc2oc(-c3cncs3)nc2c1
11

Please turn your attention to the following entry.
Query block: Please report the recorded t1/2 for C[C@H](Oc1cccc(Cl)c1Cl)C(=O)Nc1ccc2oc(-c3ccncc3)nc2c1 .
Result block: 12
